Where these numbers come from: ChEMBL document CHEMBL1129909

Biological target: UniProt P42892
Test: In vitro inhibition to recombinant human endothelin converting enzyme
Set-up: concentration or dose not given beside the values
Details: concentration not given here
VALUE TYPE: inhibition (%)
Give bare numbers, in %.

As a guide, the following entries are already answered.
The recorded inhibition for entry O=P(O)(O)CN[C@@H](Cc1c[nH]c2ccccc12)c1nnn[nH]1 equals 10

The recorded inhibition for entry O=C(O)c1n[nH]c([C@H](Cc2ccc(-c3ccccc3)cc2)NCP(=O)(O)O)n1 equals 14

The recorded inhibition for entry O=P(O)(O)C(Cc1ccc2c(c1)OCO2)N[C@@H](Cc1ccc(-c2ccccc2)cc1)c1nnn[nH]1 (some centres undefined) equals 85

The recorded inhibition for entry O=P(O)(O)C(N[C@@H](Cc1ccc(-c2ccccc2)cc1)c1nnn[nH]1)c1cccc2ccccc12 (some centres undefined) equals 14

The recorded inhibition for entry O=P(O)(O)C(Cc1cccc2cccnc12)N[C@H](Cc1ccc(-c2ccccc2)cc1)c1nnn[nH]1 (some centres undefined) equals 22

List the reported inhibition of each molecule below.
1. O=P(O)(O)C(Cc1cccc2c1OCO2)N[C@H](Cc1ccc(-c2ccccc2)cc1)c1nnn[nH]1 (some centres undefined)
2. O=C(O)CNC(=O)C(CS)Cc1ccccc1 (centres undefined)

50
9

List the reported inhibition of each molecule below.
1. O=P(O)(O)CCC(Cc1ccc(-c2ccccc2)cc1)c1nnn[nH]1 (centres undefined)
2. O=P(O)(O)CN[C@H](Cc1ccc(-c2ccccc2)cc1)c1nnn[nH]1

1. 0
2. 0

###

Would you mind telling me the reported log10 IC50 of each entry?
Biological target: Endothelin-converting enzyme 1 (Homo sapiens)
Sequence (P42892 whole entry): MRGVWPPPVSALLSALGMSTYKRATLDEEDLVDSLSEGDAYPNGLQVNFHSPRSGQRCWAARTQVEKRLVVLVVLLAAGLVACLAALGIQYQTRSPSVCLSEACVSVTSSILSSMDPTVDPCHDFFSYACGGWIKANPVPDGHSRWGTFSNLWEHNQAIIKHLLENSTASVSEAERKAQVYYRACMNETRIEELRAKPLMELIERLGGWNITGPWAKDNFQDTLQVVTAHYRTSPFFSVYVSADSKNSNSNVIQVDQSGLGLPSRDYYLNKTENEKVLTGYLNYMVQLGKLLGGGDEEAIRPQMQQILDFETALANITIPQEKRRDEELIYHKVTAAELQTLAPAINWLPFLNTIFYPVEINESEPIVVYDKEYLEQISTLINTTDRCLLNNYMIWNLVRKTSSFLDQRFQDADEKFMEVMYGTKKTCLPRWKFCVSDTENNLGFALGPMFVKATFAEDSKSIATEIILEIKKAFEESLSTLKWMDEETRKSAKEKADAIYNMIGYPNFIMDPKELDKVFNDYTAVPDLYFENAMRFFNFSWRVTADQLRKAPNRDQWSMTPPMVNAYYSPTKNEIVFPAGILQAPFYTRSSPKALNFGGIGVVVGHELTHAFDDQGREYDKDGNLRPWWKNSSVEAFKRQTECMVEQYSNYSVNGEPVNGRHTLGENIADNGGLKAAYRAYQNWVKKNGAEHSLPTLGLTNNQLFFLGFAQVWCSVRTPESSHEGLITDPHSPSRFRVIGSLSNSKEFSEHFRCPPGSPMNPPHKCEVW
Test: In vitro inhibition against recombinant human Endothelin converting enzyme 1 activity
Hello, just confirming the data are log10 of IC50 with units of nM.

As a guide, the following entries are already answered.
The recorded log10 IC50 for entry O=P(O)(O)C(Cc1cccc2cccnc12)N[C@@H](Cc1ccc(-c2ccccc2)cc1)c1nnn[nH]1 (stereo partly drawn) equals 1.36

The recorded log10 IC50 for entry O=P(O)(O)C(Cc1ccc2c(c1)OCO2)N[C@@H](Cc1ccc(-c2ccccc2)cc1)c1nnn[nH]1 (stereo partly drawn) equals 1.97

The recorded log10 IC50 for entry O=P(O)(O)C(Cc1ccccc1)N[C@H](Cc1ccc(-c2ccccc2)cc1)c1nnn[nH]1 (stereo partly drawn) equals 3.70

List the reported log10 IC50 of each compound below.
1. O=P(O)(O)C(Cc1ccc2ccccc2c1)N[C@@H](Cc1ccc(-c2ccccc2)cc1)c1nnn[nH]1 (stereo partly drawn) [CGS-314447]
2. O=P(O)(O)C(Cc1cccc2c1OCO2)N[C@@H](Cc1ccc(-c2ccccc2)cc1)c1nnn[nH]1 (stereo partly drawn)

1: 1.65; 2: 2.04

The recorded log10 IC50 for entry O=P(O)(O)CN[C@@H](Cc1ccc(-c2ccccc2)cc1)c1nnn[nH]1 equals 2.61

###

Biological target: Endothelin-converting enzyme 1 (Homo sapiens)
Test: In vitro inhibition to recombinant human endothelin converting enzyme
Set-up: concentration or dose not given beside the values
Settings: concentration not given here
VALUE TYPE: inhibition (%)
One number for each entry, in %.

The recorded inhibition for entry O=P(O)(CCc1ccc2ccccc2c1)N[C@@H](Cc1ccc(-c2ccccc2)cc1)c1nnn[nH]1 equals 0

The recorded inhibition for entry O=P(O)(O)C(Cc1cccc2c1OCO2)N[C@@H](Cc1ccc(-c2ccccc2)cc1)c1nnn[nH]1 (stereo partly drawn) equals 87

List the reported inhibition of each compound below.
1. O=P(O)(O)C(Cc1ccccc1)N[C@H](Cc1ccc(-c2ccccc2)cc1)c1nnn[nH]1 (stereo partly drawn)
2. CC(C)C[C@H](NP(=O)(O)O[C@@H]1O[C@@H](C)[C@H](O)[C@@H](O)[C@H]1O)C(=O)N[C@@H](Cc1c[nH]c2ccccc12)C(=O)O
3. O=P(O)(O)CN[C@@H](Cc1ccc2ccccc2c1)c1nnn[nH]1
4. O=P(O)(O)C(Cc1cccc2ccccc12)N[C@H](Cc1ccc(-c2ccccc2)cc1)c1nnn[nH]1 (stereo partly drawn)
5. O=P(O)(O)CN[C@@H](Cc1ccccc1)c1nnn[nH]1
6. O=P(O)(O)C(Cc1ccc2ccccc2c1)N[C@@H](Cc1ccc(-c2ccccc2)cc1)c1nnn[nH]1 (stereo partly drawn)

[18, 47, 0, 85, 0, 91]
